Just for reference, patent US20110053925A1 is where these values come from.

Overview of recorded IC50 for various compounds
test system: HCT116; assay: HCT116 IC50; assay type: cell-based; details: Homo sapiens, HCT-116
Reply with a number, then the unit it belongs to.

See these solved cases before continuing.
>>> obs_value("CC(C)(O)c1[nH]c2ccccc2c1C1CCCN(Cc2ccc(/C=C/C(=O)NO)cc2F)C1 (centres unmarked)")
"2.8 nM"
>>> obs_value("Cc1[nH]c2ccccc2c1C1C/C(=N/O)CN(Cc2ccc(/C=C/C(=O)NO)cc2)C1 (centres unmarked)")
"300 nM"
>>> obs_value("Cc1[nH]c2ccc(N3CCOCC3)cc2c1C1CCCN(Cc2ccc(/C=C/C(=O)NO)cc2F)C1 (centres unmarked)")
"13 nM"
>>> obs_value("O=C(/C=C/c1ccc(CN2CCCC(c3c[nH]c4ccccc34)C2)cc1)NO (centres unmarked)")
"32 nM"
>>> obs_value("Cc1[nH]c2ccccc2c1[C@H]1CCCN(Cc2ccc(/C=C/C(=O)NO)cc2)C1")
"12 nM"
>>> obs_value("O=C(/C=C/c1ccc(CN2CCOC(c3cc(-c4ccccc4)no3)C2)cc1)NO (centres unmarked)")
"470 nM"
>>> obs_value("O=C(/C=C/c1ccc(CN2CCCC(c3c(C(=O)NO)[nH]c4ccccc34)C2)c(F)c1)NO (centres unmarked)")
"37 nM"

Could you now consider this next compound?
Field IC50 (entry Cc1[nH]c2ccc(N3CCOCC3)cc2c1C1CCCN(Cc2ccc(/C=C/C(=O)NO)cc2)C1 (centres unmarked) ) reads 13 nM

###

target: HDAC-1 (Homo sapiens)
QUANTITY_KIND: log10(IC50) (log10 of the value in nM)
All values: log10 IC50 [nM].

>>> obs_value("O=C(/C=C/c1ccc(CN2CCCC(c3c(C(=O)N4CCOCC4)[nH]c4ccccc34)C2)c(F)c1)NO (centres unmarked) [Compound 19]")
1.34
>>> obs_value("O=C(/C=C/c1ccc(CN2CCOC(c3nc(-c4ccccc4)no3)C2)cc1)NO (centres unmarked) [Compound 25]")
1.59
>>> obs_value("Cc1[nH]c2ccc(N3CCOCC3)cc2c1C1CCCN(Cc2ccc(/C=C/C(=O)NO)cc2F)C1 (centres unmarked) [Compound 4]")
1.04

// switching to the query compound
Reported HDAC-1 (Homo sapiens) log10(IC50) for item CCC(=O)N1CCN(Cc2ccc(/C=C/C(=O)NO)cc2)CC1 [Compound 52] was 2.54

###

test system: HCT116; test: HCT116 IC50; format: cell-based; conditions: Homo sapiens, HCT-116
Listed here: items and their measured pIC50.
// returns pIC50 (minus log10 of molar concentration), number only

The examples below pair each entry with its known result.
>>> obs_value("CC(C)c1[nH]c2ccccc2c1C1CCCN(Cc2ccc(CCC(=O)NO)cc2F)C1 (centres unmarked)")
7.68
>>> obs_value("CCOC(=O)c1[nH]c2ccccc2c1C1CCCN(Cc2ccc(/C=C/C(=O)NO)cc2F)C1 (centres unmarked)")
7.85
>>> obs_value("CC(C)(C)c1[nH]c2ccccc2c1C1CCCN(Cc2ccc(/C=C/C(=O)NO)cc2Cl)C1 (centres unmarked)")
8.30
>>> obs_value("O=C(/C=C/c1ccc(CN2CCCC(c3c(-c4ccccc4)[nH]c4ccccc34)C2)c(F)c1)NO (centres unmarked)")
8.28
>>> obs_value("CC(C)(C)c1[nH]c2ccccc2c1C1=CCCN(Cc2ccc(/C=C/C(=O)NO)cc2)C1")
7.92

Entry CC(C)(C)c1[nH]c2ccccc2c1[C@@H]1CCCN(Cc2ccc(/C=C/C(=O)NO)cc2F)C1 — recorded pIC50 = 9.10

###

molecular target: HDAC-1 (Homo sapiens, UniProt Q13547)
Sequence (Q13547 whole entry, species assumed): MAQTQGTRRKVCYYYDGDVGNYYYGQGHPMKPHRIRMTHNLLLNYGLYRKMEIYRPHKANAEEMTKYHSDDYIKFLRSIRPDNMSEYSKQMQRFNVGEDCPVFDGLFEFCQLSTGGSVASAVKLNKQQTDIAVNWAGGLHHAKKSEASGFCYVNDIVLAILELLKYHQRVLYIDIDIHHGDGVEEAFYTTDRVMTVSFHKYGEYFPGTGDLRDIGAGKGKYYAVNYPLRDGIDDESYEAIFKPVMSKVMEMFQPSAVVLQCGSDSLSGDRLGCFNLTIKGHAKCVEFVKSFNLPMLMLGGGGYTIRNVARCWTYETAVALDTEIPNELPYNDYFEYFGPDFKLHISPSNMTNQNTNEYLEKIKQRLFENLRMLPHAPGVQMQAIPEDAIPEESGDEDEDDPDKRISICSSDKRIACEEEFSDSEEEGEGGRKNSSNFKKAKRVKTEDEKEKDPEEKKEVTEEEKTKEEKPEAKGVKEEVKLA
QUANTITY_KIND: pIC50
Just the number, please; pIC50 means minus log10 of the concentration in mol/L.

Previously resolved entries follow.
>>> obs_value("CC(C)(C)c1[nH]c2ccccc2c1C1CCCN(Cc2ccc(/C=C/C(=O)NO)cc2)C1 (stereo not shown)")
8.52
>>> obs_value("O=C(/C=C/c1ccc(CN2CCN(C(=O)C3CCCCC3)c3ccccc32)cc1)NO")
6.66
>>> obs_value("CC(C)(C)c1[nH]c2ccccc2c1C1=CCCN(Cc2ccc(/C=C/C(=O)NO)cc2)C1")
8.05
>>> obs_value("O=C(/C=C/c1ccc(CN2CCC(c3cc4ccccc4o3)CC2)cc1)NO")
7.34
>>> obs_value("O=C(/C=C/c1ccc(CN2CCN(c3nc4ccccc4n3C(=O)c3ccccc3)CC2)cc1)NO")
6.64

// next entry
Summary: CC(C)(C)c1[nH]c2ccccc2c1C1CCCN(Cc2ccc(/C=C/C(=O)NO)cc2Cl)C1 (stereo not shown) , HDAC-1 (Homo sapiens, UniProt Q13547), pIC50 = 7.72

###

Recorded IC50 by entry
test system: HCT116; assay: HCT116 IC50; type: cell-based; conditions: Homo sapiens, HCT-116
Write it as a number; the unit nM goes unstated.

>>> obs_value("O=C(/C=C/c1ccc(CN2CCCC(C3C(=O)Nc4ccccc43)C2)cc1)NO (centres unmarked)")
48
>>> obs_value("CC(C)(C)c1[nH]c2ccccc2c1C1CCCN(Cc2ccc(/C=C/C(=O)NO)cc2)C1 (centres unmarked)")
0.3
>>> obs_value("O=C(/C=C/c1ccc(CN2CCCC(c3c(C(=O)N4CCOCC4)[nH]c4ccccc34)C2)c(F)c1)NO (centres unmarked)")
500
>>> obs_value("O=C(/C=C/c1ccc(CN2CCCC(c3c(-c4ccccc4)[nH]c4ccccc34)C2)cc1)NO (centres unmarked)")
2.1

Kindly review the next compound as well.
Form field IC50, entry C=C(C)c1[nH]c2ccccc2c1C1CCCN(Cc2ccc(/C=C/C(=O)NO)cc2F)C1 (centres unmarked) : 6

###

Recorded below: pIC50, system HDAC-1 (Homo sapiens, UniProt Q13547).
The meaning of pIC50 here: minus log10 of the concentration in molar units.

Some entries whose results are on file:
>>> obs_value("O=C(/C=C/c1ccc(CN2CCN(C(=O)Nc3ccccc3)c3ccccc32)cc1)NO")
6.49
>>> obs_value("Cc1[nH]c2ccc(N3CCOCC3)cc2c1C1CCCN(Cc2ccc(/C=C/C(=O)NO)cc2)C1 (stereo not shown)")
8.15

Kindly note: HDAC-1 (Homo sapiens, UniProt Q13547), O=C(CCc1ccc(CN2CCCC(c3c(-c4ccccc4)[nH]c4ccccc34)C2)cc1)NO (stereo not shown) , pIC50 value reported: 8.66

Record for O=C(/C=C/c1ccc(CN2CCN(C(=O)NCc3ccccc3)c3ccccc32)cc1)NO under target or system HDAC-1 (Homo sapiens, UniProt Q13547): pIC50 reported as 6.60

Record CS(=O)(=O)N1CC2(CCN(Cc3ccc(/C=C/C(=O)NO)cc3)CC2)c2ccccc21 / HDAC-1 (Homo sapiens, UniProt Q13547), pIC50 recorded as 7.57

# value of pIC50, HDAC-1 (Homo sapiens, UniProt Q13547), item O=C(/C=C/c1ccc(CN2CCC(CC(=O)NO)(c3ccc(Cl)cc3)CC2)cc1)NO = 6.96

pIC50 on HDAC-1 (Homo sapiens, UniProt Q13547) for O=C(/C=C/c1ccc(CN2CCC(N3CCNC3=O)CC2)cc1)NO is 7.30

pIC50 on HDAC-1 (Homo sapiens, UniProt Q13547) for CC(=O)N(C)CC1(c2ccccc2)CCN(Cc2ccc(/C=C/C(=O)NO)cc2)CC1 is 7.15

Sample O=C(/C=C/c1ccc(CN2CCN(C(=O)OCc3ccccc3)CC2)cc1)NO , system: HDAC-1 (Homo sapiens, UniProt Q13547). Its pIC50 is 6.85

# Cc1ccc(S(=O)(=O)N2CCN(Cc3ccc(/C=C/C(=O)NO)cc3)CC2)cc1 with HDAC-1 (Homo sapiens, UniProt Q13547): pIC50 is 6.64

O=C(/C=C/c1ccc(CN2CCN(C(=O)C3CCCCC3)CC2)cc1)NO on HDAC-1 (Homo sapiens, UniProt Q13547) gives pIC50 = 6.89

Sample O=C(/C=C/c1ccc(CN2CCCC(c3c(-c4ccccc4)[nH]c4ccccc34)C2)c(F)c1)NO (stereo not shown) , system: HDAC-1 (Homo sapiens, UniProt Q13547). Its pIC50 is 7.96

Entry O=C(/C=C/c1ccc(CN2CCN(S(=O)(=O)c3ccccc3)CC2)cc1)NO under HDAC-1 (Homo sapiens, UniProt Q13547) had pIC50 of 6.64

GET /values?item= O=C(/C=C/c1ccc(CN2CCC3(CCc4ccccc4O3)CC2)cc1)NO &system= HDAC-1 (Homo sapiens, UniProt Q13547) returns pIC50: 6.96

Case O=C(/C=C/c1ccc(CN2CCCC(c3c(C(=O)NO)[nH]c4ccccc34)C2)c(F)c1)NO (stereo not shown) , HDAC-1 (Homo sapiens, UniProt Q13547), pIC50 recorded as 7.51
